Overview of recorded microsomal CLint for various compounds
- protocol notes: Intrinsic clearance in rat liver microsomes assessed per mg protein measured after 60 mins in presence of NADPH by LC-MS/MS analysis
- Type: ADME, Microsome
- experimental conditions: read-out: CLH
Give the quantity in µL/min/mg, number only.

Some solved entries appear below for comparison.
C=CC(=O)Nc1cc(Oc2nc(Nc3ccc(N4CCN(C)CC4)cc3OC)ccc2N2CCOCC2)ccc1C    10
C=CC(=O)Nc1cc(Oc2nc(Nc3ccc(N4CCN(C)CC4)cc3OC)ccc2N2CCCCC2)ccc1C(F)(F)F    15.1

query: For the compound C=CC(=O)Nc1cc(Oc2nc(Nc3ccc(N4CCN(C)CC4)cc3)ccc2N2CCCCC2)ccc1C , give its reported microsomal CLint.
result: 15

---

- system under test: UniProtKB P53634
- protocol notes: Inhibition of CatL-activated recombinant human C-terminal His10-tagged cathepsin C (25 to 463 residues) expressed in mouse myeloma cells using Gly-Phe-AFC as substrate preincubated for 3 hrs followed by substrate addition and measured after 60 mins
- Assay type: cell-free
pIC50: −log10 of the molar value.
measured metric: pIC50

Some solved entries appear below for comparison.
C=CC(=O)Nc1cc(Oc2nc(Nc3ccc(N4CCN(C)CC4)cc3OC)ccc2N2CCCCC2)ccc1C    7.76 to 7.77
C=CC(=O)Nc1cccc(Oc2nc(Nc3ccc(N4CCN(CC5CCCC5)CC4)cc3)ccc2Cl)c1    < 5.00
C=CC(=O)Nc1cc(Oc2nc(Nc3ccc(N4CCN(C)CC4)cc3OC)ccc2N2CCOCC2)ccc1C    7.23

query: Report its pIC50 with UniProtKB P53634 as the test system: C=CC(=O)Nc1cccc(Oc2nc(Nc3ccc(N4CCOCC4)cc3)ccc2Cl)c1
result: < 5.00

query: Report its pIC50 with UniProtKB P53634 as the test system: C=CC(=O)Nc1cccc(Oc2nc(Nc3ccc(N4CCN(C)CC4)cc3OC)ccc2N2CCCC2)c1C
result: < 5.00
